test: photoluminescence quantum yield (fraction); solvent given as SMILES; conditions: in CS(C)=O
Measured Metric: photoluminescence quantum yield
// no unit, no text: just the number

The reported photoluminescence quantum yield of the compound O=C(O)CCCc1cc(C#Cc2ccccc2)c2ccc3c(C#Cc4ccccc4)cc(C#Cc4ccccc4)c4ccc1c2c34 was 0.72

Briefly, photoluminescence quantum yield measured for COc1ccc(NC(=O)C(C(=O)Nc2ccc(OC)cc2)C(c2ccccc2O)c2c(C)[nH]c3ccccc23)cc1 (configuration not stated) : 0.013

Summary for this compound, O=C1CCCC2=C1C(c1ccccc1)c1c(c3ccccc3oc1=O)N2 (configuration not stated) : photoluminescence quantum yield is 0.41

Reported photoluminescence quantum yield ( Brc1ccc(-c2nc(-c3ccc(-c4nc(-c5ccc(Br)cc5)c(-c5ccc(Br)cc5)[nH]4)cc3)[nH]c2-c2ccc(Br)cc2)cc1 ) = 0.49

For reference, reported photoluminescence quantum yield for C#CCn1c2ccccc2c2cc(/C=C/c3cc(C)c4n3[B-](F)(F)[N+]3=C(C)C=C(C)C3=C4c3ccc(I)cc3)ccc21 stands at 0.72

Measured photoluminescence quantum yield, COc1cc(OC)cc(C2=C3C(C)=C(I)C(/C=C/c4c[nH]c5ccc([N+](=O)[O-])cc45)=[N+]3[B-](F)(F)n3c(/C=C/c4c[nH]c5ccc([N+](=O)[O-])cc45)c(I)c(C)c32)c1 : 0.02

Lab note: O=CN1N=C(c2ccc(Br)cc2)C[C@@H]1c1ccccc1 gave photoluminescence quantum yield of 0.11
